IC50 values for Serine/threonine-protein kinase Chk1 (Homo sapiens), compiled from several publications.

Past entries and their recorded results:
1. NCCOc1ccc(Cl)cc1NC(=O)Nc1cnccn1 | 16 nM
2. Cc1[nH]c(=O)c(-c2cc3ccccc3[nH]2)cc1NC(=O)c1cnn(Cc2ccccc2)c1 | < 100 nM
3. COc1cc(Cl)cc(OC[C@H]2CCNC2)c1-c1cc(Nc2cnc(C#N)cn2)n[nH]1 | 0.44 nM
4. O=C(Nc1c[nH]c(=O)c(-c2cc3cc(OCCN4CCCCC4)ccc3[nH]2)c1)c1cnn(Cc2ccccc2)c1 | < 100 nM
5. Cc1[nH]c(=O)c(-c2cc3ccccc3[nH]2)cc1NC(=O)c1cnn(Cc2ccc(F)c(F)c2)c1 | 100 to 500 nM

Provide reported IC50 for each item, in the same order as listed.
1. COCCn1cnc2ccc(Nc3c(N[C@H](C)c4cccc(O)c4)c(=O)c3=O)cc21
2. COc1cccc(C(CCC2OCCCO2)Nc2c(Nc3ccc4[nH]cnc4c3)c(=O)c2=O)c1 (stereo not shown)
3. C[C@H](c1ccccc1)n1cc(C(=O)Nc2c[nH]c(=O)c(-c3cc4cc(CN5CCC(F)CC5)ccc4[nH]3)c2)cn1
4. Cc1cc2cc(Nc3c(NCc4cccc(O)c4)c(=O)c3=O)ccc2[nH]1
5. CCN(Cc1ccc2[nH]c(-c3cc(NC(=O)c4cnn(Cc5ccccc5)c4)c[nH]c3=O)cc2c1)CC(C)(C)CN(C)C
6. Cc1ccc(Cn2cc(C(=O)Nc3c[nH]c(=O)c(-c4cc5cc(OCCCN(C)C)ccc5[nH]4)c3)cn2)cc1

// result
< 1000 nM
> 1000 nM
< 100 nM
> 1000 nM
< 100 nM
< 100 nM

Provide reported IC50 for each item, in the same order as listed.
1. Cc1ccc(Cn2cc(C(=O)Nc3c[nH]c(=O)c(-c4cc5cc(OCCN6CCCC(F)C6)ccc5[nH]4)c3)cn2)cc1 (stereo not shown)
2. N#Cc1cnc(Nc2cc(NCC3CNCCO3)c(C(N)=O)nn2)cn1 (stereo not shown)
3. COc1cc(C)cc(OC[C@@H]2CNCCO2)c1-c1cc(Nc2cnc(C#N)cn2)n[nH]1

// result
< 100 nM
70 nM
0.93 nM

Provide reported IC50 for each item, in the same order as listed.
1. C[C@@H](c1ccccc1)n1cc(C(=O)Nc2c[nH]c(=O)c(-c3cc4ccccc4[nH]3)c2)cn1
2. Cc1ccc(Cn2cc(C(=O)Nc3c[nH]c(=O)c(-c4cc5cc(CN6CCOCC6)ccc5[nH]4)c3)cn2)cc1
3. O=c1c(NCc2cccc(O)c2F)c(Nc2ccc3[nH]cnc3c2)c1=O

// result
1: 100 to 500 nM; 2: < 100 nM; 3: > 1000 nM

Provide reported IC50 for each item, in the same order as listed.
1. CS(=O)(=O)Nc1ccc(CNc2c(Nc3ccc4[nH]cnc4c3)c(=O)c2=O)cc1
2. NC(=O)c1cccc(CNc2c(Nc3ccc4[nH]cnc4c3)c(=O)c2=O)c1
3. CN(C)CCOc1cccc(CNc2c(Nc3ccc4[nH]cnc4c3)c(=O)c2=O)c1

// result
1. > 1000 nM
2. > 1000 nM
3. > 1000 nM

====

pIC50 values for Serine/threonine-protein kinase Chk1 (Homo sapiens, UniProt O14757), compiled from several publications.
pIC50: −log10 of the molar value.

Past entries and their recorded results:
1. CCc1cccc(Cn2cc(C(=O)Nc3c[nH]c(=O)c(-c4cc5cc(OCCCN(CC)CC)ccc5[nH]4)c3)cn2)c1 | > 7.00
2. N#Cc1cnc(Nc2cc(-c3c(O)cccc3OC[C@H]3CCCNC3)[nH]n2)cn1 | 9.24
3. COc1ccccc1CCNc1c(Nc2ccc3[nH]cnc3c2)c(=O)c1=O | < 6.00
4. O=c1c(NCc2ccc(O)c(O)c2)c(Nc2ccc3[nH]cnc3c2)c1=O | > 6.00
5. CC(Nc1c(Nc2ccc3[nH]cnc3c2)c(=O)c1=O)c1ccc2[nH]ccc2c1 (stereo not shown) | < 6.00
6. COc1ccc(F)c(CNc2c(Nc3ccc4[nH]cnc4c3)c(=O)c2=O)c1 | < 6.00

Provide reported pIC50 for each item, in the same order as listed.
1. CCCOC(=O)N=S(C)(=O)c1ccc2cc1OCCCCNc1nc(ncc1Br)N2 (racemic)
2. Cc1ccc(CC(O)c2cccc(CNc3c(Nc4ccc5[nH]cnc5c4)c(=O)c3=O)c2)cc1 (stereo not shown)
3. NCCOc1cccc2[nH]c(-c3cc(NC(=O)c4cnn(Cc5ccccc5)c4)c[nH]c3=O)cc12

// result
1: < 4.70; 2: < 6.00; 3: > 7.00

Provide reported pIC50 for each item, in the same order as listed.
1. O=c1c(NCc2cccc(O)c2)c(Nc2ccc3ncsc3c2)c1=O
2. CN(C)CCCOc1ccc2[nH]c(-c3cc(NC(=O)c4cnn(Cc5ccccc5)c4)c[nH]c3=O)cc2c1
3. CCNCc1ccc2[nH]c(-c3cc(NC(=O)c4cnn(Cc5ccc(F)cc5)c4)c[nH]c3=O)cc2c1
4. C[C@@H](Nc1c(Nc2ccc3[nH]cnc3c2)c(=O)c1=O)c1cccc(O)c1
5. N#Cc1ccc(Cn2cc(NC(=O)c3c[nH]c(=O)c(-c4cc5ccccc5[nH]4)c3)cn2)cc1
6. O=c1c(NCc2cccc(O)c2)c(Nc2ccc3scnc3c2)c1=O
7. COc1ccc(F)c(OCCCN)c1-c1cc(Nc2cnc(C#N)cn2)n[nH]1
8. COc1cc(CNc2c(Nc3ccc(O)c(-c4ccccn4)c3)c(=O)c2=O)ccc1F

// result
1: > 6.00; 2: > 7.00; 3: > 7.00; 4: > 7.00; 5: 5.82 to 6.30; 6: < 6.00; 7: 8.00 to 9.00; 8: < 6.00

Provide reported pIC50 for each item, in the same order as listed.
1. O=C(Nc1cnn(Cc2cccc(F)c2)c1)c1c[nH]c(=O)c(-c2cc3ccccc3[nH]2)c1
2. O=c1c(NCc2cc(Br)ccc2O)c(Nc2ccc3[nH]cnc3c2)c1=O
3. N#Cc1cnc(Nc2cc(-c3c(F)cc(Br)cc3OC[C@H]3CCCNC3)[nH]n2)cn1
4. C[C@H](c1ccccc1)n1cc(C(=O)Nc2c[nH]c(=O)c(-c3cc4cc(CN5CCCCC5)ccc4[nH]3)c2)cn1
5. CCc1cccc(Cn2cc(C(=O)Nc3c[nH]c(=O)c(-c4cc5cc(OCCN6CC(C)OC(C)C6)ccc5[nH]4)c3)cn2)c1 (stereo not shown)
6. CN(C)CC1(COc2ccc3[nH]c(-c4cc(NC(=O)c5cnn(Cc6ccccc6)c5)c[nH]c4=O)cc3c2)CC1

// result
> 7.00
< 6.00
8.64
> 7.00
> 7.00
> 7.00

Provide reported pIC50 for each item, in the same order as listed.
1. CCN(CC)CC1(COc2ccc3[nH]c(-c4cc(NC(=O)c5cnn(Cc6ccccc6)c5)c[nH]c4=O)cc3c2)CC1
2. O=c1c(NCc2cccc(O)c2)c(Nc2ccc3[nH]c(C(F)(F)F)nc3c2)c1=O
3. O=c1c(NCc2ccc3cc[nH]c3c2)c(Nc2ccc3[nH]cnc3c2)c1=O
4. Cc1ccc(OCCCN(C)C)c(NC(=O)Nc2cnccn2)c1

// result
["> 7.00", "< 6.00", "< 6.00", 7.80]

Provide reported pIC50 for each item, in the same order as listed.
1. O=C(Nc1c[nH]c(=O)c(-c2cc3cc(CN4CCC(F)CC4)ccc3[nH]2)c1)c1cnn(CCc2ccc(F)cc2)c1
2. Cc1ccc(Cn2cc(C(=O)Nc3c[nH]c(=O)c(-c4cc5cc(OCCN6CCN(C)CC6)ccc5[nH]4)c3)cn2)cc1
3. COc1cccc([C@@H](C)Nc2c(Nc3ccc4[nH]cnc4c3)c(=O)c2=O)c1
4. O=c1c(NCc2cccc(-n3cccc3)c2)c(Nc2ccc3[nH]cnc3c2)c1=O

// result
> 7.00
> 7.00
> 6.00
< 6.00
